# Species: Mus musculus
# procedure_details: Selectivity ratio of ED50 for 5-HT reuptake in mouse to ED50 for norepinephrine reuptake in mouse
# Assay type: functional
Here, each record is paired with measured Ratio ED50 data.

Answered cases to consult:
molecule | value_reported
CN1C2CCC1CC(Oc1ccc(C#N)cc1)(c1ccc(F)cc1)C2 (stereo unspecified) | 0.59
CN1C2CCC1CC(Oc1ccc(Br)cc1)(c1ccccc1)C2 (stereo unspecified) | 0.56
CN1C2CCC1CC(Oc1cccc(C(F)(F)F)c1)(c1ccccc1)C2 (stereo unspecified) | 0.1

Tell me its Ratio ED50 given CN1C2CCC1CC(Oc1ccc(C#N)cc1)(c1ccccc1)C2 (stereo unspecified) as the entry.
1.08

Respond only with Ratio ED50 recorded for CN1C2CCC1CC(Oc1ccc([N+](=O)[O-])cc1)(c1ccccc1)C2 (stereo unspecified)
0.29

Identify Ratio ED50 associated with the molecule CN(C)CCCC1(c2ccc(F)cc2)OCc2cc(C#N)ccc21 (stereo unspecified)
0.12
